# target of assay: M1-family alanyl aminopeptidase PfA-M1 (Plasmodium falciparum 3D7)
# run description: PfM1AAP aminopeptidase inhibitors, dose response, biochemical, QFRET, H-Leu-NHMec substrate, set 2 (AID 602213)
# test settings: recombinant PfM1AAP, H-Leu-NHMec fluorogenic cleavage
endpoint name: IC50

Use the examples below as a reference point.
smiles	IC50
O=C(NCc1ccccc1)C1CCN(S(=O)(=O)c2ccc(Br)s2)CC1	2.26 µM
O=C(NCc1ccc(Cl)cc1)C1CCN(S(=O)(=O)c2ccc(Br)s2)CC1	14.6 µM
O=C(NCc1ccc2c(c1)OCO2)C1CCN(S(=O)(=O)c2ccc(Br)s2)CC1	1.54 µM

Recorded IC50 of O=C(NCc1ccc(F)cc1)C1CCN(S(=O)(=O)c2ccc(Br)s2)CC1 , please.
5.05 µM

---

# target of assay: M1-family alanyl aminopeptidase PfA-M1 (Plasmodium falciparum 3D7)
# run description: PfM1AAP aminopeptidase inhibitors, dose response, biochemical, QFRET, H-Leu-NHMec substrate, set 2 (AID 602213)
# test settings: recombinant PfM1AAP, H-Leu-NHMec fluorogenic cleavage; at 100 µM (top of the series)
The source made the active and inactive calls.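 How the source made its calls: active means inhibition of 30% or more at any tested concentration; inactive means the rest.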
endpoint name: inhibition

smiles	assay value
CC[C@H](C)[C@H](NS(=O)(=O)c1ccc(Br)s1)C(=O)NCc1ccc(Cl)cc1	inactive
CC[C@H](C)[C@H](NC(=O)c1ccc(C(C)(C)C)cc1)C(=O)NCc1ccc(Cl)cc1	inactive
CC[C@H](C)[C@H](NS(=O)(=O)c1ccc(Br)s1)C(=O)NCc1ccc2c(c1)OCO2	inactive
CC[C@H](C)[C@H](NC(=O)c1ccc(C(C)(C)C)cc1)C(=O)NCc1ccc2c(c1)OCO2	inactive
